target.under.test: cynomolgus Siglec-2/CD22 (Macaca fascicularis, UniProt A0A2K5WCZ6)
Sequence (A0A2K5WCZ6 entry or part of it): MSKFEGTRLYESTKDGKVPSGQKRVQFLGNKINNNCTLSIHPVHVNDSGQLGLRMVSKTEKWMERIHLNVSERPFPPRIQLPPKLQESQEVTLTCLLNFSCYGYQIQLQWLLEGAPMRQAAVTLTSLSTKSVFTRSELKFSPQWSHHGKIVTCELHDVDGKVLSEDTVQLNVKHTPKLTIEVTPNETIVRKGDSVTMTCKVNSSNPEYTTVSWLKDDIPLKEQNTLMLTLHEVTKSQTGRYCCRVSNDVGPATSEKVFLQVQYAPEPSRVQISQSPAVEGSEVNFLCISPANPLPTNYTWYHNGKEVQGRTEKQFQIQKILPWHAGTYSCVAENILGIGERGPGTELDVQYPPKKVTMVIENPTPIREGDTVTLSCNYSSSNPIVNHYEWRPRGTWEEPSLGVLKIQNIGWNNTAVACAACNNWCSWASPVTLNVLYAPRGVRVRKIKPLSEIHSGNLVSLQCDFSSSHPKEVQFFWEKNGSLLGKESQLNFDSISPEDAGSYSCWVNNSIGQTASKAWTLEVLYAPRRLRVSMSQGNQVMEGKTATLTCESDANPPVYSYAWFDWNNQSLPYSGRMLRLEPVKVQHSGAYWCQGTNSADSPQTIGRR
procedure.details: biochemical
test.settings: SPR, steady-state analysis; read-out: Affinity cyno CD22
Reported Kd values for the following compounds.

{"compound": "C#CCOCCOCCO[C@]1(C(=O)O)C[C@H](O)[C@@H](NC(=O)CO)[C@H]([C@H](O)[C@H](O)CNC(=O)c2ccccc2)O1 [Compound 202]", "measured.value": "< 1000 nM"}
{"compound": "C#CCOCCOCCO[C@]1(C(=O)O)C[C@H](O)[C@@H](NC(=O)CO)[C@H]([C@H](O)[C@H](O)CNC(=O)Cc2ccc3[nH]ccc3c2)O1 [Compound 196]", "measured.value": "< 1000 nM"}

Prompt: Consider the compound shown here: C#CCCOc1ccc(CS[C@]2(C(=O)O)C[C@H](O)[C@@H](NC(=O)CO)[C@H]([C@H](O)[C@H](O)CNC(=O)Cc3ccc(-c4ccc(O)cc4)cc3)O2)cc1 [Compound 64] What is its recorded Kd?
Response: < 1000 nM

---

target.under.test: mouse Siglec-2-Fc-Avi (CD22) (Mus musculus, UniProt P35329)
Construct: made in house
Sequence (P35329 22-708 limits assumed): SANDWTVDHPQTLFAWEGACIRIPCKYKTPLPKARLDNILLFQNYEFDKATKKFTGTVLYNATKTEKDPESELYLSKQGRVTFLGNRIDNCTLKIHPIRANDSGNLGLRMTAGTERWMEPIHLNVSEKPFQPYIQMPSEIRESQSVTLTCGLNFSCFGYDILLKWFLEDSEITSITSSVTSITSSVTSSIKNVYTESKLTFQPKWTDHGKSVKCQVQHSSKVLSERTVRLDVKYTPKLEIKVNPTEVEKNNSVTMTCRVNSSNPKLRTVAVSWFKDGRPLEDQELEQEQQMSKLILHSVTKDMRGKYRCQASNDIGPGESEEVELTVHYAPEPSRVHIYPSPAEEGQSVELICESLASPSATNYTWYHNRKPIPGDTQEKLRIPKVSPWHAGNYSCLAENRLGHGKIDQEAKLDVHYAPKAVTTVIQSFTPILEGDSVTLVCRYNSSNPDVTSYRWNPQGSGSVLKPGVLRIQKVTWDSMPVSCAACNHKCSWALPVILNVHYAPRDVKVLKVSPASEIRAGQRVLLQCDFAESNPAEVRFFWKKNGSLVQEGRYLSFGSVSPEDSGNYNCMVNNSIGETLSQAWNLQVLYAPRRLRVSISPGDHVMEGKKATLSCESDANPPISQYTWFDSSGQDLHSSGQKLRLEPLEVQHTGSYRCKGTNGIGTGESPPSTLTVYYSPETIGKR
procedure.details: SPR binding affinity to mouse CD22
test.settings: steady-state analysis
measure: Kd

These recorded examples may help you get a feel for the data.
{"compound": "C#CCOCCOCCO[C@]1(C(=O)O)C[C@H](O)[C@@H](NC(=O)NCC(F)(F)F)[C@H]([C@H](O)[C@H](O)CNC(=O)Cc2ccc(-c3ccc(O)cc3)cc2)O1 [Compound 199]", "Kd": "> 10 µM"}
{"compound": "C#CCOCCOCCNc1c(NCCCCCCO[C@]2(C(=O)O)C[C@H](O)[C@@H](NC(=O)CO)[C@H]([C@H](O)[C@H](O)CNC(=O)c3ccccc3)O2)c(=O)c1=O [Compound 230]", "Kd": "1 to 10 µM"}
{"compound": "C#CCOCCCCCCO[C@]1(C(=O)O)C[C@H](O)[C@@H](NC(=O)CO)[C@H]([C@H](O)[C@H](O)CNC(=O)Cc2cccc(OC(F)(F)F)c2)O1 [Compound 155]", "Kd": "1 to 10 µM"}
{"compound": "C#CCOCCOCCO[C@]1(C(=O)O)C[C@H](O)[C@@H](NC(=O)CO)[C@H]([C@H](O)[C@H](O)CNC(=O)Cc2ccc(O)cc2)O1 [Compound 153]", "Kd": "< 1 µM"}
{"compound": "C#CCOCCNC(=O)CCCCCCO[C@]1(C(=O)O)C[C@H](O)[C@@H](NC(=O)CO)[C@H]([C@H](O)[C@H](O)CNC(=O)Cc2ccc(Cl)c(F)c2)O1 [Cpd. 214]", "Kd": "< 1 µM"}

With those in mind, consider the next compound.
Prompt: Item under review: C#CCOc1ccc(CO[C@]2(C(=O)O)C[C@H](O)[C@@H](NC(=O)CO)[C@H]([C@H](O)[C@H](O)CNC(=O)Cc3ccc(F)cc3)O2)cc1 [Compound 166] . Reported Kd?
Response: 1 to 10 µM

---

target.under.test: cynomolgus Siglec-2/CD22 (Macaca fascicularis, UniProt A0A2K5WCZ6)
procedure.details: biochemical
test.settings: SPR, steady-state analysis; read-out: Affinity cyno CD22
Known Kd of a selection of compounds

{"compound": "CC(=O)NCCOCCOCCOCCOCCC(=O)NCCCCCCO[C@]1(C(=O)O)C[C@H](O)[C@@H](NC(=O)CO)[C@H]([C@H](O)[C@H](O)CNC(=O)Cc2ccc(Cl)cc2)O1 [Cpd. 244]", "measure": "Kd", "measured.value": "< 1000 nM"}

Prompt: Which Kd value is on record for CC(=O)NCCOCCOCCOCCOCc1cn(CCCCCCO[C@]2(C(=O)O)C[C@H](O)[C@@H](NC(=O)CO)[C@H]([C@H](O)[C@H](O)CNC(=O)Cc3ccc(C(F)F)cc3)O2)nn1 [Compound 252] ?
Response: < 1000 nM

Prompt: For C#CCCOCCOCCO[C@]1(C(=O)O)C[C@H](O)[C@@H](NC(=O)CO)[C@H]([C@H](O)[C@H](O)CNC(=O)Cc2ccc(-c3ccc(O)cc3)cc2)O1 [Compound 83] , what is its reported Kd?
Response: 1000 to 10000 nM

Prompt: Param item = C#CCOCCCCCCO[C@]1(C(=O)O)C[C@H](O)[C@@H](NC(=O)C(C)O)[C@H]([C@H](O)[C@H](O)CNC(=O)Cc2ccc(Cl)cc2)O1 (stereo partly drawn) [Compound 183] ; retrieve measured Kd.
Response: < 1000 nM

Prompt: Please give the measured Kd for this compound: C#CCNc1c(NCCCCCCO[C@]2(C(=O)O)C[C@H](O)[C@@H](NC(N)=O)[C@H]([C@H](O)[C@H](O)CNC(=O)Cc3ccc(-c4ccccc4)cc3)O2)c(=O)c1=O [Compound 224]
Response: < 1000 nM

Prompt: Which measured Kd value corresponds to C#CCCOc1ccc(CS[C@]2(C(=O)O)C[C@H](O)[C@@H](NC(=O)CO)[C@H]([C@H](O)[C@H](O)CNC(=O)Cc3ccc(Cl)cc3)O2)cc1 [Compound 122] ?
Response: < 1000 nM

Prompt: What Kd value was documented for this compound, C#CCOCCOCCNc1c(NCCCCCCO[C@]2(C(=O)O)C[C@H](O)[C@@H](NC(=O)CO)[C@H]([C@H](O)[C@H](O)CNC(=O)c3cccc(Cl)c3)O2)c(=O)c1=O [Compound 227] ?
Response: < 1000 nM

Prompt: Can you look up the measured Kd of C#CCOCCOCCO[C@]1(C(=O)O)C[C@H](O)[C@@H](NC(=O)CNC(C)=O)[C@H]([C@H](O)[C@H](O)CNC(=O)Cc2ccc(-c3ccc(O)cc3)cc2)O1 [Compound 57] for me?
Response: 1000 to 10000 nM

Prompt: Quick one: Kd of C#CCOc1ccc(-c2cn([C@]3(C(=O)O)C[C@H](O)[C@@H](NC(=O)CO)[C@H]([C@H](O)[C@H](O)CNC(=O)Cc4ccc(-c5ccc(O)cc5)cc4)O3)nn2)cc1 [Compound 53] ?
Response: 1000 to 10000 nM

Prompt: What does the data say about its Kd? Entry: C#CCOCCOCCO[C@]1(C(=O)O)C[C@H](O)[C@@H](NC(=O)CO)[C@H]([C@H](O)[C@H](O)CNC(=O)Cc2ccc(OC)cc2)O1 [Compound 174]
Response: 1000 to 10000 nM

---

target.under.test: human Siglec-2/CD22 protein (Homo sapiens, UniProt P20273)
Sequence (P20273 20-847): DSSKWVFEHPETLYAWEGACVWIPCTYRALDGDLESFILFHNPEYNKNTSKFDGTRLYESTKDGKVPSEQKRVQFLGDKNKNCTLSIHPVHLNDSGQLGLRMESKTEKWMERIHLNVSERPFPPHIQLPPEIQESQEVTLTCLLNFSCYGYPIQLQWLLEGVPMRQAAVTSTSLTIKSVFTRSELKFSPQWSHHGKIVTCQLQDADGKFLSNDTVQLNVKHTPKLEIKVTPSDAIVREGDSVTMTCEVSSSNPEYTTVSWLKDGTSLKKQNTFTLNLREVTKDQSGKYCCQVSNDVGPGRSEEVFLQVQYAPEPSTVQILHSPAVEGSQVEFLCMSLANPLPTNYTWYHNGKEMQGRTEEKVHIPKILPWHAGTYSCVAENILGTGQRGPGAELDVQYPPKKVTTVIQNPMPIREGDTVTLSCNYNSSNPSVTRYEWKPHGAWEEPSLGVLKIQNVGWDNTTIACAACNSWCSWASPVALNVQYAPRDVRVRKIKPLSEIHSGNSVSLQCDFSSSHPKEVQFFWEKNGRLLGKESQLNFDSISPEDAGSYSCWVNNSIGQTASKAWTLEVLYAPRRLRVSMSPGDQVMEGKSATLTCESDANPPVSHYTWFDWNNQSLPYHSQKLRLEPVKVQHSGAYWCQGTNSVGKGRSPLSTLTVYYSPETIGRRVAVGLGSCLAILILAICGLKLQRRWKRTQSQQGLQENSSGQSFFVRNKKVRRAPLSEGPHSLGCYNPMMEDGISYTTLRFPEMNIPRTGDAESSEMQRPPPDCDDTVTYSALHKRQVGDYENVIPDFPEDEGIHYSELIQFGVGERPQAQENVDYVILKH
procedure.details: SPR binding affinity to human CD22
test.settings: steady-state analysis
pKd: −log10 of the molar value.
measure: pKd

Prompt: pKd for C#CCCOc1ccc(CO[C@]2(C(=O)O)C[C@H](O)[C@@H](NC(=O)CO)[C@H]([C@H](O)[C@H](O)CNC(=O)Cc3ccc(-c4ccc(NC(C)=O)cc4)cc3)O2)cc1 ?
Response: > 6.00

Prompt: Which pKd is listed for CC(=O)NCCOCCOCCOCCOCCNC(=O)CCOCCO[C@]1(C(=O)O)C[C@H](O)[C@@H](NC(=O)CO)[C@H]([C@H](O)[C@H](O)CNC(=O)Cc2ccc(-c3ccccc3)cc2)O1 ?
Response: 5.00 to 6.00

Prompt: I'd like to know its pKd. The molecule in question is CC(=O)NCCOCCOCCOCCOCCNc1c(NCCCCCCO[C@]2(C(=O)O)C[C@H](O)[C@@H](NC(C)=O)[C@H]([C@H](O)[C@H](O)CNC(=O)Cc3ccc(Cl)cc3)O2)c(=O)c1=O
Response: > 6.00
